- protocol description: Lipophilicity, logD of the compound
- Assay type: physicochemical
- applied conditions: octanol/water
experimental readout: logD
Answers are plain numbers.

Query: For COc1cc(C(=O)NC[C@](O)(c2cc(C(C)(C)O)c(F)c(-c3ccc(F)cc3)n2)C(F)(F)F)cc2cc(C)nnc12 , what is its reported logD?
Result: 3.55

---

- System: P-glycoprotein
- protocol description: Efflux ratio of permeability in dog MDCK-MDR1 cells assessed as P-glycoprotein mediated efflux
- Type: ADME, cell-based, Canis lupus familiaris
experimental readout: efflux ratio

Query: For COc1cc(C(=O)NC[C@](O)(c2cc(C(C)(C)O)c(F)c(-c3ccc(F)cc3)n2)C(F)(F)F)cc2cc(C)nnc12 , what is its reported efflux ratio?
Result: > 93
